Target: T1, human EphA4 extracellular domain-MBP-His protein (human)
T1 construct: also called human EphA4 extracellular domain (ECD); Human EphA4 extracellular domain-MBP-His 10
Assay: ELISA
I'd be grateful if you could share measured absorbance for these entries.
Enter the number alone.

Query: Please look up its absorbance: KPEP11_13 (antibody, V domains shown, Rabbit IgG; also called anti-human EphA4 rabbit monoclonal antibody KPEP11_13) VH: QSLEESGGRLVTPGTPLTLTCTVSGFSLSSYHMSWVRQAPGKGLEWIGIIYRSGNTYYANWAKGRFTISKTSTTVDLKITSPTTEDTATYFCARESSTFYGMDLWGPGTLVTVSS VL: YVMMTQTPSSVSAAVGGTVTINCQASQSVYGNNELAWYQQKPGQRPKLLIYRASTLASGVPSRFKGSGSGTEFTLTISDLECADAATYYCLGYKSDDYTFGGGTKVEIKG
Reply: 1.31

Query: Again, but for KPEP11_02 (antibody, V domains shown, Rabbit IgG; also called anti-human EphA4 rabbit monoclonal antibody KPEP11_02) VH: QSLEESGGRLVTPGGSLTLTCTVSGIDLSSYAMSWVRQAPEKGLEWIGFINNYGTYYASWAKGRFTISKTSTTVDLKVTSLTTEDTATYFCVRGGRSPNYDIVSGDIWGPGTLVTVSS VL: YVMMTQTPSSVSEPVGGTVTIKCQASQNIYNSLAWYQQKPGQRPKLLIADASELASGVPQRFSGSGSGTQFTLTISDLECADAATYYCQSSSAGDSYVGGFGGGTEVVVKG
Reply: 1.35

Query: Again, but for KPEP11_05 (antibody, V domains shown, Rabbit IgG; also called anti-human EphA4 rabbit monoclonal antibody KPEP11_05) VH: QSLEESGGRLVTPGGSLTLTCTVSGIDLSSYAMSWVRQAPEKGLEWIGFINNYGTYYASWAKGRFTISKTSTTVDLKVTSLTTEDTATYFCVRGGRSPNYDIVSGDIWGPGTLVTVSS VL: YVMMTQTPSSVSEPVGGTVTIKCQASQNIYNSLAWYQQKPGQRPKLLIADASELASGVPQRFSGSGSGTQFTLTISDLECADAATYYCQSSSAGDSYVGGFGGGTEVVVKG
Reply: 1.43

Query: Again, but for KPEP11_18 (antibody, V domains shown, Rabbit IgG/kappa; Used coated or HRP-labeled in the sandwich ELISAs; also called anti-human EphA4 rabbit monoclonal antibody KPEP11_18; HRP-labeled KPEP11_18) VH: QSLEESGGRLVTPGTPLTLTCTISGFSLSSFYINWVRQAPGRGLEWIGIIYPDIDATDYASWVKGRFTISKTSTTVDLKITSPTTEDTATYFCARSDVDYYTTRLDLWGQGTLVTVSS VL: DPMMTQTASPVSAAVGGTVSISCQSNKSVYSNWLSWFQQKPGQPPKLLIYGASTLASGVPSRFKGSGSGTQFTLTVSDVQCDDAATYFCLGGYRDNSDNAFGGGTEVVVKG
Reply: 1.42
